- System: IGROV1 cells
- ASSAY DETAILS: Cell viability, CellTiter Glo, IGROV1
- Format: cell-based
- SETTINGS: 72h, mean of n = 3 independent experiments; read-out: IGROV1 IC50 (CellTiter Glo)
MEASURED METRIC: pIC50
The quantity pIC50 is defined as the negative base-10 logarithm of the molar concentration.

Recorded pIC50 for CC(C)(C)c1ccc(C(=O)Nc2cc(-c3ccccc3)n[nH]2)cc1 [Compound 3i-1247] , please?
5.48

----------
- Tested on: HDQP1 cells
- ASSAY DETAILS: Cell viability, CellTiter Glo, HDQP1
- Assay type: cell-based
- SETTINGS: Homo sapiens, HDQ-P1, 72 h, one independent experiment per value, read-out: HDQP1 IC50, individual dose-response curve (CellTiter Glo)
- Protocol: Drug sensitivity and resistance testing in MOLM13, DU4475, HDQP1, and IGROV1 cells was conducted at the Finnish Institute for Molecular Medicine (FIMM), University of Helsinki. In brief, the effects of compounds on cell viability and cell death were quantified with Cell-Titer Glo (Promega) and CellTox Green (Promega), respectively. Compounds or vehicle control were included in cell culture medium at described concentrations for 72h using an automated liquid dispenser in 384-well format. […]
MEASURED METRIC: pIC50
The quantity pIC50 is defined as the negative base-10 logarithm of the molar concentration.

Cn1cc(-c2cc(NC(=O)c3ccc(C(C)(C)C)cc3)n[nH]2)ccc1=O [Compound 3i-1248]: 4.73

Recorded pIC50 for Cc1cc(-c2cc(NC(=O)c3ccc(C(C)(C)C)cc3)[nH]n2)ccn1 [Compound 3i-1246] , please?
5.00

----------
- TEST TARGET: c-KIT (Homo sapiens)
- Sequence (P10721 26-976): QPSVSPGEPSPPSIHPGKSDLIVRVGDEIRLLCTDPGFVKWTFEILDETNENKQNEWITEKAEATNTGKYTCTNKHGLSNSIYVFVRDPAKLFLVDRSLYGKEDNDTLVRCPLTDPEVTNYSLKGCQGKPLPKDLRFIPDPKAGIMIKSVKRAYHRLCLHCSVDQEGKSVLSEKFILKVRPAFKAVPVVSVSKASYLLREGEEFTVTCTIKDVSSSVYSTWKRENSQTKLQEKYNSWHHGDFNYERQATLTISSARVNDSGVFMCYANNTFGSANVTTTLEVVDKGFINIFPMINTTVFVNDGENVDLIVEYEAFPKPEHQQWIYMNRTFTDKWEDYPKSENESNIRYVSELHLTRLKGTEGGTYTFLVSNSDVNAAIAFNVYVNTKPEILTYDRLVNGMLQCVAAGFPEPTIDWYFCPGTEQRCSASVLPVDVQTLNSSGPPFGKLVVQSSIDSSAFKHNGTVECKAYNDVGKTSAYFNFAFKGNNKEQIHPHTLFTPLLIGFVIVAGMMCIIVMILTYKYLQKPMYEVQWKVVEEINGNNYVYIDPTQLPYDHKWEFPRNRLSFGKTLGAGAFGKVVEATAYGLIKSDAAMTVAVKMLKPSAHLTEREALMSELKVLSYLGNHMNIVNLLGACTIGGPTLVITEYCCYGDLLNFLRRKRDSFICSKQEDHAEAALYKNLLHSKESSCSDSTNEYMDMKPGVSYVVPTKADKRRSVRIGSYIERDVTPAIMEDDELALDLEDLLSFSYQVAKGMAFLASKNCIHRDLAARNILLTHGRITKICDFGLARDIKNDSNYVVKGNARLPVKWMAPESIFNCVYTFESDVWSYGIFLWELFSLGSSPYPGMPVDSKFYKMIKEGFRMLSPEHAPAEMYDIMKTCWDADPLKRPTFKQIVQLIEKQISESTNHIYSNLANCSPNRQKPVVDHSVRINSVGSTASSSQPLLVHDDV
MEASURED METRIC: IC50

Fill in the recorded IC50 for this molecule, with c-KIT (Homo sapiens) as test system: CC(C)(C)c1ccc(C(=O)Nc2cc(-c3ccccc3)n[nH]2)cc1
8.5 nM

----------
- TEST TARGET: PDGFRB (Homo sapiens)
- Construct: purchased Eurofins/DiscoverX
- Sequence (P09619 33-1106): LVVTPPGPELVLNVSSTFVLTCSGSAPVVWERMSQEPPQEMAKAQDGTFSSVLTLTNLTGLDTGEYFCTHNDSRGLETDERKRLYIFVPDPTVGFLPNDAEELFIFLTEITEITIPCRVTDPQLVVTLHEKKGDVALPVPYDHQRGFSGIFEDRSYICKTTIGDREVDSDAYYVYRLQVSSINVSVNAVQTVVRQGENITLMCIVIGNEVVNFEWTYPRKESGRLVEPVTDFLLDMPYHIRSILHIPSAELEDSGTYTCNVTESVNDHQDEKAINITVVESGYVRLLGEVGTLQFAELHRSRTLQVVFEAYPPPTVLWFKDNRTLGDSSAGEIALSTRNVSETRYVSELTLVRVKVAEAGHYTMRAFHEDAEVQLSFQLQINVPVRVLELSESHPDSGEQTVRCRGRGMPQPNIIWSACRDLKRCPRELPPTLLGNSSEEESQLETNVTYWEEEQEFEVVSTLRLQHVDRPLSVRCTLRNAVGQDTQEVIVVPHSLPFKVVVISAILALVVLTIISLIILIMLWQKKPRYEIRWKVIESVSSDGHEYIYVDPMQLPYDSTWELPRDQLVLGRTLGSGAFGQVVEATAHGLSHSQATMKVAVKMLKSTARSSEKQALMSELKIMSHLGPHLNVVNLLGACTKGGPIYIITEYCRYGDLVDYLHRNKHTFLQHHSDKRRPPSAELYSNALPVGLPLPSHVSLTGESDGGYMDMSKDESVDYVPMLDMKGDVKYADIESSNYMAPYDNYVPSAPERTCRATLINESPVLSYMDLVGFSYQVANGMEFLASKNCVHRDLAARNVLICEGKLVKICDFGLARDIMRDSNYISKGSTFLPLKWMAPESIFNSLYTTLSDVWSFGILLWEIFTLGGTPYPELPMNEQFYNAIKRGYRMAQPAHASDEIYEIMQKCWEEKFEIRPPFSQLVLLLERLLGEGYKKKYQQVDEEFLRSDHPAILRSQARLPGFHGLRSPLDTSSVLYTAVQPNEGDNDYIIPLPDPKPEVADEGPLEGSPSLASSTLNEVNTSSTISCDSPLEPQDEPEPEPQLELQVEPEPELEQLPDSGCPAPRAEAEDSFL
- ASSAY DETAILS: Eurofins/DiscoverX cell free kinase assay, percent control
- Assay type: binding
- SETTINGS: 1000 nM compound
MEASURED METRIC: per_control_1000nM PDGFRB

Cc1cc(-c2cc(NC(=O)c3ccc(C(C)(C)C)cc3)[nH]n2)ccn1 [Compound 3i-1246]: 0 percent control
COc1ccc(-c2cc(NC(=O)c3ccc(C(C)(C)C)cc3)[nH]n2)cc1 [Compound 3i-1103]: 0 percent control
CC(C)(C)c1ccc(C(=O)Nc2cc(-c3ccccc3)n[nH]2)cc1 [Compound 3i-1247]: 0 percent control

Field: next compound
Recorded per_control_1000nM PDGFRB for Cn1cc(-c2cc(NC(=O)c3ccc(C(C)(C)C)cc3)n[nH]2)ccc1=O [Compound 3i-1248] , please?
11 percent control

----------
- TEST TARGET: FLT3_autoinhibited (Homo sapiens, UniProt P36888)
- Construct: purchased Eurofins/DiscoverX
- Sequence (P36888 564-993 limits assumed): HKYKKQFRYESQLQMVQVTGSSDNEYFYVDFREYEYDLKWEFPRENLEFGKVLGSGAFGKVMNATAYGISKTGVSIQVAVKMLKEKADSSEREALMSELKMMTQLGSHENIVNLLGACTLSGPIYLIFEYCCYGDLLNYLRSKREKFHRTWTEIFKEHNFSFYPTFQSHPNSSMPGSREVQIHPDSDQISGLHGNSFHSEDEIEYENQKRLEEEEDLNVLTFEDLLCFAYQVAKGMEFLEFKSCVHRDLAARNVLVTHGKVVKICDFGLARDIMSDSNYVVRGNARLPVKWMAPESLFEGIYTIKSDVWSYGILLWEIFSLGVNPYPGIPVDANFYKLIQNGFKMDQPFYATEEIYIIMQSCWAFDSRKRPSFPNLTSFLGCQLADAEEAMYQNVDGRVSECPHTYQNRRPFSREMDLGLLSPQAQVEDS
- ASSAY DETAILS: Eurofins/DiscoverX cell free kinase assay, percent control
- Assay type: binding
- SETTINGS: 10000 nM compound
MEASURED METRIC: per_control_10000nM FLT3_autoinhibited (percent control)
Report only the number, with the unit percent control understood.

Previously resolved entries follow.
Cn1cc(-c2cc(NC(=O)c3ccc(C(C)(C)C)cc3)n[nH]2)ccc1=O: 12
COc1ccc(-c2cc(NC(=O)c3ccc(C(C)(C)C)cc3)[nH]n2)cc1: 0.4
Cc1cc(-c2cc(NC(=O)c3ccc(C(C)(C)C)cc3)[nH]n2)ccn1: 1

Field: next compound
Recorded per_control_10000nM FLT3_autoinhibited for CC(C)(C)c1ccc(C(=O)Nc2cc(-c3ccccc3)n[nH]2)cc1 , please?
0
